Test system: MS2 coat protein
Test: apparent KD of MS2 coat protein; designed switch direction (-1 OFF switch, 1 ON switch): -1; higher = weaker reporter binding
Settings: input ligand: microRNA oligo, concentration not stated
Output satisfied for apparent KD of MS2 coat protein not less than 0.05 µM; output not satisfied otherwise.

Below are worked cases with known answers.
{"columns": ["Primary sequence", "Category label"],
 "data": [
  ["AUCAGCUCGUGAGGAUAUACAUGAGGAUCACCCAUGUGGUCAUUAGCAGCUUCGGCUGCAUUAAUGUAGAAGGCACGAGCUGAU [ENG2/8-A2] (Eterna round: R96, puzzle: Exclusion NG 2)", "satisfied"],
  ["CACCUGAAAGGAGGAUAUCUUACAUGAGGAUCACCCAUGUAAUAAAUGAGAAUUUCGAAUGUAAUAGAGAAGGCCUGAAAAGGC [Ostracism 85 - Jieux - Exclusion NG 2] (Eterna round: R96, puzzle: Exclusion NG 2)", "not satisfied"],
  ["AUGAACAAUGUAGGAUAUGCGUGGCGAAGCUAUGCAGAAGGACAUGAGGAUCACCCAUGUUCAAGCGUCUGCGUACAGAUGCUA [JL eng1 1.35 mod 7] (Eterna round: R96, puzzle: Exclusion NG 1)", "not satisfied"],
  ["GCAGCAUAGUAUACUUACUGUUACAUGAGGAUCACCCAUGUACAGGAUAUGGUCUGGAUUACAGGCCAGAAGGGUACAAGCUGC [Eli exng3 - 024] (Eterna round: R96, puzzle: Exclusion NG 3)", "not satisfied"],
  ["UAAUUAAAUGUAGGAUAUCUGCACGUUUAGUGCAGAGAAGGACAUGAGGAUCACCCAUGUAGAUCAAAUUAAAUUAAUUUAAUU [ENG1/5-D2] (Eterna round: R96, puzzle: Exclusion NG 1)", "not satisfied"],
  ["UUGUUCCAUGUAGGAUAUGCAUAUUCUCAUUAUGCAGAAGGACAUGAGGAUCACCCAUGUAUGUUAUUAUUAUAUGUUACAUGU [Design 2] (Eterna round: R96, puzzle: Exclusion NG 1)", "satisfied"]
]}

**Q:** Hello, I need to know if AACUCACGUUCAGGAUAUCGCGUUCCAAAGACAUGAGAAGGGAACAUGAGGAUCACCCAUGUGCCCGGUCUCAGACCGGGCUUC [Cetein] (Eterna round: R96, puzzle: Exclusion NG 1) has measured apparent KD of MS2 coat protein not below 0.05 µM. Thanks!
**A:** satisfied

**Q:** Hello, I need to know if AGAUGGCGAGGAUAUACAUGAGGAUCACCCAUGUGAAGAUAAAGAGUGAGGAAGAAAAGUAGAAGGCGCUGUCA [Mat - Exclusion 3 - Mod of Salish D28] (Eterna round: R96, puzzle: Exclusion 3) has measured apparent KD of MS2 coat protein not below 0.05 µM. Thanks!
**A:** satisfied

**Q:** Does the sequence AUUAAUGUCAAAGGAUAUCAGCACGUGUAGUGCUGAGAAGGUUGAACAUGAGGAUCACCCAUGUAGAUCAUUAAUAAUUUAAUU [ENG1/10-B3] (Eterna round: R96, puzzle: Exclusion NG 1) have recorded apparent KD of MS2 coat protein that is 0.05 µM or more?
**A:** not satisfied

**Q:** Does apparent KD of MS2 coat protein meet or surpass 0.05 µM for AAGCAGGUGUAGGCCGUCUACAUGAGGAUCACCCAUGUGCCUCAUCCACCCGGCACCCAAUAAAGCGGGCGCCGGGC [Teququ] (Eterna round: R96, puzzle: Sensor v2, turn-off variant) ?
**A:** satisfied

**Q:** Would you say GCGGAUUAUGUAGGAUAUCGGUCAGUUUCUGAUCGAGAAGGACAUGAGGAUCACCCAUGUAAAUUCCUCGCUUUGUGAGGCCGC [JL ENG1 3.64] (Eterna round: R96, puzzle: Exclusion NG 1) shows apparent KD of MS2 coat protein at minimum 0.05 µM?
**A:** not satisfied

Where these numbers come from: the supplement of paper PMC9170038
